# tested-target: T1, 4H584-bN
# T1 chain: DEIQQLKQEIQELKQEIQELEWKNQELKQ
# test-protocol: two-hybrid library CCNG1;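 note: natural log of median RNA to DNA barcode read ratio; higher means stronger binding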
# note: boundary value -0.9 maps to f; interaction score below it maps to t

1. DEIQQLKQEIQELKQEIQELEWKNQELKQ [4H584-bN]
f
2. DKNQQLKQEIQELEQKIQELKWKNQELEQ [4H3631-bN]
f
3. DKNQQLKQEIQELEQKNQELEWKIQELKQ [4H3638-bN]
f
4. DEIQQLKQEIQELEQKNQELKWEIQELKQ [4H570-bN]
f
5. DENQQLEQKIQELKQEIQELKWKNQELEQ [4H1359-bN]
f
6. DKNQQLEQKIQELKQENQELEWKIQELKQ [4H3414-bN]
t
7. DKNQQLKQENQELKQKIQELKWEIQELEQ [4H3817-bN]
t
8. DENQQLKQKIQELEQEIQELKWENQELKQ [4H1804-bN]
f
9. DENQQLKQEIQELKQENQELKWKIQELEQ [4H1629-bN]
f
10. DENQQLEQKIQELKQKNQELEWEIQELEQ [4H1393-bN]
t
11. DKNQQLEQEIQELKQKIQELEWENQELKQ [4H3172-bN]
f
12. DKNQQLEQEIQELEQKNQELKWEIQELEQ [4H3129-bN]
t
13. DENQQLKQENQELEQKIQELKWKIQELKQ [4H1710-bN]
f
